Quick note: these are Ki numbers for system: human 5-HT1A receptor subtype (Homo sapiens, UniProt P08908)
One number for each entry, in nM.

Sample answers from the record:
- Compound: "N#Cc1ccc2[nH]cc([C@H]3CC[C@H](NCCOc4cc(F)cc5c4OCC5)CC3)c2c1 [Example 6b]"
  Target of assay: "human 5-HT1A receptor subtype (Homo sapiens, UniProt P08908)"
  Units of measure: "nM"
  Ki: 23.5
- Compound: "Fc1ccc2c(c1)[nH]cc2[C@H]1CC[C@@H](NCCOc2cccc3c2OCCO3)CC1 [Example 4c]"
  Target of assay: "human 5-HT1A receptor subtype (Homo sapiens, UniProt P08908)"
  Units of measure: "nM"
  Ki: 353
- Compound: "Cn1cc([C@H]2CC[C@H](NCCOc3cc(F)cc4c3OCCC4)CC2)c2cc(C#N)ccc21 [Example 5d]"
  Target of assay: "human 5-HT1A receptor subtype (Homo sapiens, UniProt P08908)"
  Units of measure: "nM"
  Ki: 24

The recorded Ki for COc1cc(F)c(F)cc1OCCN[C@H]1CC[C@H](c2c[nH]c3ccc(F)cc32)CC1 [Example 11b] is 24.9

====

Hi there, I'd appreciate the recorded Ki for every entry that follows.
Target of assay: serotonin transporter (Rattus norvegicus)
Construct: frontal cortical membranes prepared from male Sprague-Dawley rats; from tissue; host or cells: rat frontal cortex membranes
Sequence (P31652 whole entry): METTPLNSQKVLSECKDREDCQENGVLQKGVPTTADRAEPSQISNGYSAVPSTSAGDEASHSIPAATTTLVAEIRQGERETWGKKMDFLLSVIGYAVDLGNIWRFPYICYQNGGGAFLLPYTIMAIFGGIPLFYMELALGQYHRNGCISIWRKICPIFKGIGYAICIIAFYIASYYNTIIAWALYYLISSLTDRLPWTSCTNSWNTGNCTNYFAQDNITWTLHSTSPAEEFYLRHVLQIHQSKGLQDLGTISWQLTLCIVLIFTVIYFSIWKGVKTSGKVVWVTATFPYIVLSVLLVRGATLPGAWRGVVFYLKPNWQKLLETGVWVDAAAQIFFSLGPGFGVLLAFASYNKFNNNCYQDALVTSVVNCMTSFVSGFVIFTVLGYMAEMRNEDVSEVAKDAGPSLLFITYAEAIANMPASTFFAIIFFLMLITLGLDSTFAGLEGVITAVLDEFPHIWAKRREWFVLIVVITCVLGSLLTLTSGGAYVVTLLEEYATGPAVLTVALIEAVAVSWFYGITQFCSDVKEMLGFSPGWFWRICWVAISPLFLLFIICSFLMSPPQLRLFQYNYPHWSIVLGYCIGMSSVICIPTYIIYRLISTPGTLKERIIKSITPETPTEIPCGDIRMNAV
Assay text: serotonin transporter affinity, 3H-paroxetine binding to frontal cortical membranes
Parameters: species or system male Sprague-Dawley rats
Numbers only, in nM.

- Compound: "COc1cc(F)c(F)cc1OCCN[C@H]1CC[C@H](c2c[nH]c3ccc(F)cc32)CC1 [Example 11b]"
  Ki / nM: 0.7

Could I get Ki for every one of these entries?
1. COc1cc(S(C)(=O)=O)c(F)cc1OCCN[C@H]1CC[C@H](c2c[nH]c3ccc(F)cc32)CC1
2. COc1cc(F)c(F)cc1OCCN[C@H]1CC[C@@H](c2c[nH]c3ccc(F)cc32)CC1 [Example 11a]

Key:
0.47
1.7

====

Target of assay: human 5-HT1A receptor subtype (Homo sapiens)
Construct: expressed in transfected cells
Assay text: 5-HT1A receptor binding assay with [3H]8-OH-DPAT on membranes of 5-HT1A.CHO cells
Conditions: @10nM; given instead of a Ki
Kindly state 5-HT1A (% @10nM) for each of the entries shown.
Give bare numbers, in %@10nM.

Sample records with 5-HT1A (% @10nM):
- Compound: "COc1cc(F)c(F)cc1OCCN[C@H]1CC[C@@H](c2c[nH]c3ccc(F)cc32)CC1 [Example 11a]"
  5-HT1A (% @10nM) / %@10nM: 0
- Compound: "COc1cc(F)ccc1OCCN[C@H]1CC[C@@H](c2c[nH]c3ccc(F)cc32)CC1"
  5-HT1A (% @10nM) / %@10nM: 16
- Compound: "COc1cc(S(C)(=O)=O)c(F)cc1OCCN[C@H]1CC[C@H](c2c[nH]c3ccc(F)cc32)CC1"
  5-HT1A (% @10nM) / %@10nM: 0

Note: attention shifts to another entry.
Entry COc1ccccc1OCCNCC1CCC(c2c[nH]c3ccc(C#N)cc23)CC1 (stereo not shown) [Example 10b] ; assay system human 5-HT1A receptor subtype (Homo sapiens); 5-HT1A (% @10nM) recorded at 7

====

Assignment: determine reported Emax for the given molecules.
Target of assay: human 5-HT1A receptor subtype (Homo sapiens, UniProt P08908)
Construct: expressed in transfected cells
Assay text: cAMP formation in forskolin-treated cells (cAMP SPA assay)
Format: cell-based
Conditions: forskolin 1 uM, 10 min at 37°C
Answers are plain numbers, in %.

# annotated cases, reported Emax shown
- Smiles representation: "N#Cc1ccc2[nH]cc([C@H]3CC[C@H](NCCOc4cc(F)cc5c4OCCC5)CC3)c2c1"
  Measured property: "Emax"
  Observed: 0
- Smiles representation: "Cc1nc2c(OCCN[C@H]3CC[C@H](c4c[nH]c5ccc(F)cc54)CC3)cc(Cl)cc2[nH]1"
  Measured property: "Emax"
  Observed: 0
- Smiles representation: "COc1ccc(F)cc1OCCN[C@H]1CC[C@H](c2c[nH]c3cc(F)ccc32)CC1"
  Measured property: "Emax"
  Observed: 0

Batch request: Emax for each of the following molecules.
1. Fc1cc2c(c(OCCN[C@H]3CC[C@H](c4c[nH]c5ccc(F)cc54)CC3)c1)OCCC2
2. Fc1ccc2[nH]cc([C@H]3CC[C@H](NCCOc4cccc5c4OCCO5)CC3)c2c1
3. Fc1ccc2[nH]cc([C@H]3CC[C@H](NCCOc4cccc5[nH]ccc45)CC3)c2c1

Key:
0
61
90

====

Target of assay: human 5-HT1A receptor subtype (Homo sapiens)
Sequence (P08908 1-422): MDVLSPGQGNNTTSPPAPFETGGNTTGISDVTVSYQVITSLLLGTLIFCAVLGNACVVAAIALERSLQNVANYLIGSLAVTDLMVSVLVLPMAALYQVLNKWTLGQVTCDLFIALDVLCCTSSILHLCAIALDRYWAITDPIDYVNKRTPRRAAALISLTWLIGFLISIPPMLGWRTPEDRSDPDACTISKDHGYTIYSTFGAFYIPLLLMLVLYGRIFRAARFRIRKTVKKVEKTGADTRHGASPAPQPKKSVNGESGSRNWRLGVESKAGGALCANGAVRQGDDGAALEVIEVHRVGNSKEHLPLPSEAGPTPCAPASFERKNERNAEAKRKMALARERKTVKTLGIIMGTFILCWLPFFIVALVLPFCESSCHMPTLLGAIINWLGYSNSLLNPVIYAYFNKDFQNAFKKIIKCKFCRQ
Binarize Ki at 0.1 µM; below is 1, at or above is -1.

- Smiles representation: "Fc1ccc2[nH]cc([C@H]3CC[C@@H](NCCOc4cccc5c4OCCO5)CC3)c2c1"
  Target of assay: "human 5-HT1A receptor subtype (Homo sapiens)"
  Classification: -1
- Smiles representation: "Fc1ccc2[nH]cc([C@H]3CC[C@@H](NCCOc4cccc5[nH]ccc45)CC3)c2c1"
  Target of assay: "human 5-HT1A receptor subtype (Homo sapiens)"
  Classification: -1
- Smiles representation: "COc1cc(F)ccc1OCCN[C@H]1CC[C@H](c2c[nH]c3ccc(F)cc32)CC1"
  Target of assay: "human 5-HT1A receptor subtype (Homo sapiens)"
  Classification: 1
- Smiles representation: "COc1ccc(F)cc1OCCN[C@H]1CC[C@H](c2c[nH]c3cc(F)ccc32)CC1"
  Target of assay: "human 5-HT1A receptor subtype (Homo sapiens)"
  Classification: 1
- Smiles representation: "Cc1nc2c(OCCN[C@H]3CC[C@H](c4c[nH]c5ccc(F)cc54)CC3)cc(Cl)cc2[nH]1"
  Target of assay: "human 5-HT1A receptor subtype (Homo sapiens)"
  Classification: 1

Exercise: Please state whether Ki is below 0.1 µM for Fc1cc2c(c(OCCN[C@H]3CC[C@H](c4c[nH]c5ccc(F)cc54)CC3)c1)OCCC2
Key: 1

Exercise: Lab note: Ki threshold 0.1 µM. Does this compound come in strictly under it? N#Cc1ccc2[nH]cc([C@H]3CC[C@@H](NCCOc4cc(F)cc5c4OCCC5)CC3)c2c1
Key: -1

Exercise: I'd appreciate it if you could check whether Fc1ccc2[nH]cc([C@H]3CC[C@H](NCCOc4cc(Cl)cc5[nH]cnc45)CC3)c2c1 has Ki smaller than 0.1 µM.
Key: 1

Exercise: In plain terms, does Fc1cc(OCCN[C@H]2CC[C@@H](c3c[nH]c4ccc(F)cc43)CC2)c2occc2c1 come in under 0.1 µM for Ki?
Key: -1

Exercise: Here's an entry: COc1ccccc1OCCN[C@H]1CC[C@@H](c2c[nH]c3ccc(F)cc32)CC1 . Is its Ki below 0.1 µM?
Key: -1

Exercise: I'd appreciate it if you could check whether Fc1ccc2[nH]cc([C@H]3CC[C@H](NCCOc4cccc5[nH]ccc45)CC3)c2c1 has Ki smaller than 0.1 µM.
Key: 1

Exercise: I'd appreciate it if you could check whether Fc1ccc2c(c1)[nH]cc2[C@H]1CC[C@H](NCCOc2cccc3c2OCCO3)CC1 has Ki smaller than 0.1 µM.
Key: 1

Exercise: Please determine if N#Cc1ccc2[nH]cc([C@H]3CC[C@H](NCCOc4cc(F)cc5c4OCCC5)CC3)c2c1 is below 0.1 µM in terms of Ki.
Key: 1

Exercise: Hello, is Ki of the following compound strictly smaller than 0.1 µM? Fc1ccc2[nH]cc([C@H]3CC[C@H](NCCOc4cccc5c4OCCO5)CC3)c2c1
Key: 1

Exercise: Please determine if COc1ccc(F)cc1OCCN[C@H]1CC[C@@H](c2c[nH]c3cc(F)ccc32)CC1 is below 0.1 µM in terms of Ki.
Key: -1

Exercise: Below 0.1 µM on Ki? Entry Fc1cc(OCCN[C@H]2CC[C@H](c3c[nH]c4ccc(F)cc43)CC2)c2occc2c1
Key: 1

Every entry's value here was drawn from patent EP1068184B1.
